Taken from patent US5039791A.

Target: fibrin (Homo sapiens, UniProt P02671+P02675+P02679)
Construct: purchased Kabi Vitrum
Sequence (P02671 20-644 isoform P02671-2 limits assumed): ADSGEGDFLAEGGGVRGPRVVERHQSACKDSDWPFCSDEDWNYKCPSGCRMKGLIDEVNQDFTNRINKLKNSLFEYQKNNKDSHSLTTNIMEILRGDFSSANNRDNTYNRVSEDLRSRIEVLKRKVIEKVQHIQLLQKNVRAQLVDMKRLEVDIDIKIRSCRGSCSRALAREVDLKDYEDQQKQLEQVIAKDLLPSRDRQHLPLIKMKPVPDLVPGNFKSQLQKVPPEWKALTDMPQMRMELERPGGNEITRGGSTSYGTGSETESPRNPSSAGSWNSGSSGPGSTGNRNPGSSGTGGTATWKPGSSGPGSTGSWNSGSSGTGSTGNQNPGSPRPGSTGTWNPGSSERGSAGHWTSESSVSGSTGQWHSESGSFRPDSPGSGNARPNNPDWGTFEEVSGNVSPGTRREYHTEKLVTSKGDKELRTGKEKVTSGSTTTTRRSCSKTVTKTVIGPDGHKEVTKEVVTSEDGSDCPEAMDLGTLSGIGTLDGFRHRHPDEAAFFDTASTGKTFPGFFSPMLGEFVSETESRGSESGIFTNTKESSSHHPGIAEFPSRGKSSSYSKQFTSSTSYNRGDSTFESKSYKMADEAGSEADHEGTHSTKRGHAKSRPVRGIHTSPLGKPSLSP
Sequence (P02675 45-491 limits assumed): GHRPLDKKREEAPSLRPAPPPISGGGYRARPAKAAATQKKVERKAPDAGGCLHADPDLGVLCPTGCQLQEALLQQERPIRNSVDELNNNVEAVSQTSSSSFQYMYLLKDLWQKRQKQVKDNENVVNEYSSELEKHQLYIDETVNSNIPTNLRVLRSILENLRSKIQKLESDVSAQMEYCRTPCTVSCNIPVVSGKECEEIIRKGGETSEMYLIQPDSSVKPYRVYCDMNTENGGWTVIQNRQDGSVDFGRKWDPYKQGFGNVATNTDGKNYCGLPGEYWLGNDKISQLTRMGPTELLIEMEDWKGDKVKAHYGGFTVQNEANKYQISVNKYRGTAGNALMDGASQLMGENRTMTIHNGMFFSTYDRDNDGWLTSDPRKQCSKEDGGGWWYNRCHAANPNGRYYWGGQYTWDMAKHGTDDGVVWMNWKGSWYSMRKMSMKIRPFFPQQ
Sequence (P02679 27-437 isoform P02679-2 limits assumed): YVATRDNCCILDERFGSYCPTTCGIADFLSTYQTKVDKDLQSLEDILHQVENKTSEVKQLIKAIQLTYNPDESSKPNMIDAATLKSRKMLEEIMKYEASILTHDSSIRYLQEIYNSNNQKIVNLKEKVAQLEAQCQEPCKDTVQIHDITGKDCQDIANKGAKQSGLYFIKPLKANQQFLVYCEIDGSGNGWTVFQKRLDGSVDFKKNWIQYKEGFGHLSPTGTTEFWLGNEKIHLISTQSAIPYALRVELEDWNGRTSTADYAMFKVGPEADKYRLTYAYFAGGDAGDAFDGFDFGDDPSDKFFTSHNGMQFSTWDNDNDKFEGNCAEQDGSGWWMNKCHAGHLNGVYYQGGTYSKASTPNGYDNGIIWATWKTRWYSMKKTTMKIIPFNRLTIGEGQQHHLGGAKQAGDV
Test: Fibrin binding: binding of tPA to fibrin, tPA antigen in supernatant by ELISA
Conditions: 15 μg/ml peptide; 200 ng/ml single chain melanoma tPA, 200 μg/ml human fibrinogen; no peptide = 48
Experimental: Binding of tPA to fibrin was measured using the conventional method of Rijken et al., J. Biol. Chem. 257, 2920-2925 (1982). […] Mixtures were clotted by the addition of 1 unit/ml bovine thrombin, incubated one hour at room temperature and centrifuged. tPA antigen in the supernatant was measured by conventional ELISA and the percentage bound calculated by difference using the antigen level of a control mixture with no fibrinogen as 0% bound. […]
Where no end group is shown, it is not given here.
Catalogue of % Bound (binding of tPA to fibrin) values
measuredQuantity: % Bound (binding of tPA to fibrin) (%)

substance	valueUnit	reading
SPSQEIHARFRRGARSYQVICRDEK [Peptide 142]	%	58
DGDAKPWCHVLKNRRLTWEYCDVPS-amide (DGDAKPWCHVLKNRRLTWEYCDVPS-NH2; cysteine pairing not given here) [Peptide 167, 25 amino acid synthetic peptide amide fragment of native human tPA]	%	50
SMILIGKVYTAQNPSAQALGLGKHN-NH2 [Peptide 164]	%	53
GNSDCYFGNGSAYRGTHSLTESGAS-NH2 [Peptide 161]	%	57
QESSVVRTVCLPPADLQLPDWTECE-amide [Peptide 182, 25 amino acid synthetic peptide amide fragment of native human tPA]	%	52
CDVPSCSTCGLRQYSQPQFRIKGGL-amide (CDVPSCSTCGLRQYSQPQFRIKGGL-NH2; cysteine pairing not given here) [Peptide 169, 25 amino acid synthetic peptide amide fragment of native human tPA]	%	55

----------
Biological target: fibrin (Homo sapiens, UniProt P02671+P02675+P02679)
Construct: purchased Kabi Vitrum
Sequence (P02671 20-644 isoform P02671-2 limits assumed): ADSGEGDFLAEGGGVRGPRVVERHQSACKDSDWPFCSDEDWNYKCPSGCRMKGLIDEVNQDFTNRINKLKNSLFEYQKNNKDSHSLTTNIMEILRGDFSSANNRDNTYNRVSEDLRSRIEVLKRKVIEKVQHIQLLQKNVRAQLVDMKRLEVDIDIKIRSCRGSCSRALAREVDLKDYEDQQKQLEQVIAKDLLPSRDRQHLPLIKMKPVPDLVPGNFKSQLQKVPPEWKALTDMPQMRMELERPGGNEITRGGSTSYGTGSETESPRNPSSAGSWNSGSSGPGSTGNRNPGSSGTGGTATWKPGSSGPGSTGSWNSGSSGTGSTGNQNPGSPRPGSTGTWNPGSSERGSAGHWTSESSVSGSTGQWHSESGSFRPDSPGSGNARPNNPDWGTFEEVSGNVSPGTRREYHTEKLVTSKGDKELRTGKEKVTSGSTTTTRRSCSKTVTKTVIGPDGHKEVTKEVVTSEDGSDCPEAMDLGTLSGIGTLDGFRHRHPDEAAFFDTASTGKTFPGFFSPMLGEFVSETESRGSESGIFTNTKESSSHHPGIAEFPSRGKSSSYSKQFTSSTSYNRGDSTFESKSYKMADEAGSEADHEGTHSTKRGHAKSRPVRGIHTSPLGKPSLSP
Sequence (P02675 45-491 limits assumed): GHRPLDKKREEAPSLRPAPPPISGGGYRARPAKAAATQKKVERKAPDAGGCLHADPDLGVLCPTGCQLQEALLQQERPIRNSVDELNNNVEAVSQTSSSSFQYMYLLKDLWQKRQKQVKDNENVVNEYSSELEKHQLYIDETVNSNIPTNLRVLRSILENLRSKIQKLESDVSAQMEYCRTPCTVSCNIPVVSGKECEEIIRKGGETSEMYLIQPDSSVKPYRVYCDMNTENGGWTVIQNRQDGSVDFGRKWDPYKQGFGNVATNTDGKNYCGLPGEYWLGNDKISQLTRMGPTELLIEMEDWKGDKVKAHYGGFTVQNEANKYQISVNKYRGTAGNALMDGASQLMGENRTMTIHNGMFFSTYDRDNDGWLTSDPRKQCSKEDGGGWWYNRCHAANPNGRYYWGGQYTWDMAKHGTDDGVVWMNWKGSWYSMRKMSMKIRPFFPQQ
Sequence (P02679 27-437 isoform P02679-2 limits assumed): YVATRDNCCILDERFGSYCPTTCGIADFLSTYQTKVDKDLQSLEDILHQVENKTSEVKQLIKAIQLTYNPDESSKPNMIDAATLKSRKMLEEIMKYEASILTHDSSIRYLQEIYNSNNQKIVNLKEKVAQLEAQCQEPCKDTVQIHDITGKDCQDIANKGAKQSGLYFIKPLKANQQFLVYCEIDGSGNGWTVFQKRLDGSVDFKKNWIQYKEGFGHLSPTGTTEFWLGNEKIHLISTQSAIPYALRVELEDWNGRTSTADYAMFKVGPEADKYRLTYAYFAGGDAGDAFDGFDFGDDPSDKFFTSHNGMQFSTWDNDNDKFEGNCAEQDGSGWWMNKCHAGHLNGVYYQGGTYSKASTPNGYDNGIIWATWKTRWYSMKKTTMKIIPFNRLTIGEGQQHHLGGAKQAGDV
Assay: Fibrin binding: binding of tPA to fibrin, tPA antigen in supernatant by ELISA
Conditions: 15 μg/ml peptide; 200 ng/ml single chain melanoma tPA, 200 μg/ml human fibrinogen; no peptide = 48
Where no end group is shown, it is not given here.

substance	% Bound (binding of tPA to fibrin) (%)
QLKSDSSRCAQESSVVRTVCLPPAD-amide (QLKSDSSRCAQESSVVRTVCLPPAD-NH2; cysteine pairing not given here) [Peptide 181, 25 amino acid synthetic peptide amide fragment of native human tPA]	49
LGKHNYCRNPDGDAKPWCHVLKNRR-amide (LGKHNYCRNPDGDAKPWCHVLKNRR-NH2; cysteine pairing not given here) [Peptide 166, 25 amino acid synthetic peptide amide fragment of native human tPA]	57
WNSSALAQKPYSGRRPDAIRLGLGN [Peptide 155]	54
YVFKAGKYSSEFCSTPACSEGNSDC-amide (YVFKAGKYSSEFCSTPACSEGNSDC-NH2; cysteine pairing not given here) [Peptide 159, 25 amino acid synthetic peptide amide fragment of native human tPA]	54
LRSNRVEYCWCNSGRAQCHSVPVKS-amide (LRSNRVEYCWCNSGRAQCHSVPVKS-NH2; cysteine pairing not given here) [Peptide 146, 25 amino acid synthetic peptide amide fragment of native human tPA]	54
LCAGDTRSGGPQANLHDACQGDSGG-amide [Peptide 189, 25 amino acid synthetic peptide amide fragment of native human tPA]	50
LLNRTVTDNMLCAGDTRSGGPQANL-NH2 [Peptide 188]	52
NPDRDSKPWCYVFKAGKYSSEFCST-amide (NPDRDSKPWCYVFKAGKYSSEFCST-NH2; cysteine pairing not given here) [Peptide 158, 25 amino acid synthetic peptide amide fragment of native human tPA]	53
LKNRRLTWEYCDVPSCSTCGLRQYS [Peptide 168, 25 amino acid synthetic peptide fragment of native human tPA]	54
YSGRRPDAIRLGLGNHNYCRNPDRD-NH2 [Peptide 156]	52
VPVKSCSEPRCFNGGTCQQALYFSD-amide (VPVKSCSEPRCFNGGTCQQALYFSD-NH2; cysteine pairing not given here) [Peptide 148, 25 amino acid synthetic peptide amide fragment of native human tPA]	50
